biological target: Tryptophan 2,3-dioxygenase (Homo sapiens) (UniProt P48775); test: Activity of 10 uM recombinant human TDO assessed as substrate consumption at 100 uM at 37 degC at pH 7.5 after 1 hr by HPLC with fluorescence detection method
Sequence (P48775 whole entry, looked up): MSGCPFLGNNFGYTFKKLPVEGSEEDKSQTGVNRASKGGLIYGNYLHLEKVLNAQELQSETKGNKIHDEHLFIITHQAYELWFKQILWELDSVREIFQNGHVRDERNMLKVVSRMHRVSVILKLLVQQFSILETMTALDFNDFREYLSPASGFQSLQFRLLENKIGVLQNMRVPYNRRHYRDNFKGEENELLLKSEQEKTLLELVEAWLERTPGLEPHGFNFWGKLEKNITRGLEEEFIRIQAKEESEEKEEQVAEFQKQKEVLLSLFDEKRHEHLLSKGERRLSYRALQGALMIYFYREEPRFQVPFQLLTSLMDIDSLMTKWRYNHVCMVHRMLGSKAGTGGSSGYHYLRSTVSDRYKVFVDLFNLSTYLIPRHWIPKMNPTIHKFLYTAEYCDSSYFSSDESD
Activity reference
outcomeMeasure: Activity (%)

[[record]]
compound = "N[C@@H](Cc1c[nH]c2ccc(O)cc12)C(=O)O"
recordedvalue = 14

[[record]]
compound = "Cn1cc(C[C@H](N)C(=O)O)c2ccccc21"
recordedvalue = 3

[[record]]
compound = "N[C@@H](Cc1c[nH]c2ccccc12)C(=O)O"
recordedvalue = 100

[[record]]
compound = "NC(Cc1cn(CCF)c2ccccc12)C(=O)O (racemic)"
recordedvalue = 2


Entry source: ChEMBL document CHEMBL3576814
